# assayed-target: PCP binding site of the NMDA receptor
# procedure-summary: PCP binding site assay, radioligand [3H](+)-MK-801, pig brain preparations
# measurement-setup: n = 3, values without SEM mean of two experiments
pKi: −log10 of the molar value.
experimental-endpoint: pKi

Enquiry: Query: pKi; subject: CC[C@]1(c2ccccc2)OCC[C@H](CCCCNC)O1 (relative stereo) [16b]
Return: < 6.00

Enquiry: Fill in: pKi of c1ccc(CNCCCC[C@H]2CCO[C@@H](c3ccccc3)O2)cc1 (relative stereo) [17a] is ___
Return: < 6.00

Enquiry: Requested read-out: pKi. Entry: CCC1(c2ccccc2)OCCC(CCCC(NC)c2ccccc2)O1 (stereo not drawn) [25b]
Return: < 6.00

Enquiry: pKi for CC[C@]1(c2ccccc2)OCC[C@H](CCCCNCc2ccccc2)O1 (relative stereo) [17b] ?
Return: 6.24

Enquiry: // pKi lookup, key: CNCCCC[C@H]1CCO[C@@H](c2ccccc2)O1 (relative stereo) [16a]
Return: < 6.00

Enquiry: Given CC[C@]1(c2ccccc2)OCC[C@H](CCCCN(C)Cc2ccccc2)O1 (relative stereo) [18b] , state its recorded pKi.
Return: < 6.00

Enquiry: Entry under review: c1ccc(CNC(CCC[C@H]2CCO[C@@H](c3ccccc3)O2)c2ccccc2)cc1 (relative stereo) [26a] . Reported pKi?
Return: < 6.00

Enquiry: I would be grateful if you could share the reported pKi for CC[C@]1(c2ccccc2)OCC[C@H](CCCCN2CCCC2)O1 (relative stereo) [19b] .
Return: < 6.00

Enquiry: Given CNC(CCC[C@H]1CCO[C@@H](c2ccccc2)O1)c1ccccc1 (relative stereo) [25a] , state its recorded pKi.
Return: < 6.00

Enquiry: Which measured pKi value corresponds to CCC1(c2ccccc2)OCCC(CCCC(c2ccccc2)N2CCCC2)O1 (stereo not drawn) [27b] ?
Return: < 6.00

Enquiry: Suppose we examine the compound NCCCC[C@H]1CCO[C@@H](c2ccccc2)O1 (relative stereo) [14a] ; what pKi value has been reported?
Return: < 6.00

Enquiry: Data request, read-out pKi, for NC(CCC[C@H]1CCO[C@@H](c2ccccc2)O1)c1ccccc1 (relative stereo) [24a]
Return: < 6.00

Enquiry: Can you share its pKi? I mean this compound: CN(CCCC[C@H]1CCO[C@@H](c2ccccc2)O1)Cc1ccccc1 (relative stereo) [18a]
Return: < 6.00

Enquiry: Which measured pKi value corresponds to c1ccc(C(CCC[C@H]2CCO[C@@H](c3ccccc3)O2)N2CCCC2)cc1 (relative stereo) [27a] ?
Return: < 6.00

Enquiry: Entry CCC1(c2ccccc2)OCCC(CCCC(NCc2ccccc2)c2ccccc2)O1 (stereo not drawn) [26b] has what pKi?
Return: < 6.00

Enquiry: Please look up its pKi: CCC1(c2ccccc2)OCCC(CCCC(N)c2ccccc2)O1 (stereo not drawn) [24b]
Return: 6.28

Enquiry: If you can, please state the reported pKi value of c1ccc([C@@H]2OCC[C@H](CCCCN3CCCC3)O2)cc1 (relative stereo) [19a] .
Return: < 6.00

Enquiry: I'd like to know its pKi. The compound in question is CC[C@]1(c2ccccc2)OCC[C@H](CCCCN)O1 (relative stereo) [14b]
Return: 6.14
